# ASSAY_INFO: In vivo pharmacokinetics, plasma concentration after p.o. dosing
# Parameters: species or system Wistar rats
# EXPERIMENTAL_CONTEXT: male, Wistar, plasma, po; rat, 30 mg/kg p.o., 3.00 hours
Where a name gives a salt, the structure may show the parent alone.
MEASUREMENT_NAME: concentration at 3 h (ng/mL)
Just the number please, in ng/mL, no unit attached.

## Task Any idea what its concentration at 3 h is? The compound is NC/C=C(\F)CS(=O)(=O)c1ccccc1 [Compound 1, hydrochloride]
## Result 238

---

# ASSAY_INFO: In vivo pharmacokinetics, plasma concentration after p.o. dosing
# Design: species or system Wistar rats
# EXPERIMENTAL_CONTEXT: male, Wistar, plasma, po; rat, 30 mg/kg p.o., 5.00 hours
Where a name gives a salt, the structure may show the parent alone.
MEASUREMENT_NAME: concentration at 5 h
Remember to put the unit after the number in your answer.

## Task Any idea what its concentration at 5 h is? The molecule is NC/C=C(\F)CS(=O)(=O)c1ccccc1 [Compound 1, hydrochloride]
## Result 41.3 ng/mL
